B1: Transitional endoplasmic reticulum ATPase, residues 26 to 106; numbered along this chain, P55072 (parent)
chain: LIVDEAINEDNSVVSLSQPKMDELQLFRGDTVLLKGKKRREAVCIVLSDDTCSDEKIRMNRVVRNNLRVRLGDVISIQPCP

variants of: B1; assay: abundance fitness (aPCA) (normalised: wild type 0, dead -1); higher = more abundant; growth selection in yeast, the domain comes from the species named; details: Homo sapiens
Hi there, I'd appreciate the recorded abundance fitness for every entry that follows.

Req: Param item = L16S ; retrieve measured abundance fitness.
Resp: -0.595

Req: Record request: abundance fitness value, item V46Y
Resp: -0.911

Req: Can you share its abundance fitness? I mean this variant: G29W
Resp: -0.268

Req: Fill in: abundance fitness of R40M is ___
Resp: -0.077

Req: Which abundance fitness reading was recorded for the variant N66C ?
Resp: -0.374

Req: Value lookup for abundance fitness; key = C52G
Resp: -0.197

Req: Give its abundance fitness value. Item: L34N
Resp: -0.891

Req: Query: abundance fitness; subject: P81L
Resp: -0.405

Req: Recorded abundance fitness for G72S , please?
Resp: -0.278

Req: Please give the measured abundance fitness for this variant: L67C
Resp: -0.175

Req: # lookup: abundance fitness of P19S
Resp: 0.051

Req: # query: abundance fitness of entry E5L
Resp: -0.107

Req: Consider the variant shown here: S17H What is its recorded abundance fitness?
Resp: -0.396

Req: Request the reported abundance fitness associated with E55F
Resp: -0.052

Req: So what does the record say about abundance fitness for D30Y ?
Resp: -0.732

Req: Quick one: abundance fitness for L47D ?
Resp: -0.056

Req: Given D30A , state its recorded abundance fitness.
Resp: 0.005

Req: Which abundance fitness is reported for this variant? K56Q
Resp: 0.067

Req: GET /values?readout=abundance fitness&item= E23S
Resp: -0.062

Req: Could you share which abundance fitness value was measured for N65V ?
Resp: -0.131

Req: Using the record for D22A , report its abundance fitness.
Resp: -0.109

Req: Which abundance fitness value belongs to D10C ?
Resp: -0.165
